System: P12-Ichikawa
assay_text: cell viability relative to DMSO control; higher = less cytotoxic
run_parameters: RPMI 5 mM glucose + 10% dialyzed FBS; 48 h; 5.12 µM
result_type: cell viability (%)
Supply the numeric figure in %, leaving out any unit text.

Consider the reported cell viability for these compounds:
Cc1coc2c1C(=O)C(=O)c1c-2ccc2c(C)cccc12    109
O=C(C=CC#Cc1cccc(N[S+](=O)([O-])c2ccccc2)c1)NO    3.83
NNCCc1ccccc1    113
C[C@]12CC[C@H]3[C@@H](CC[C@H]4NC(=O)\C=C/[C@]34C)[C@@H]1CC[C@@H]2C(=O)NC5=CC(=CC=C5C(F)(F)F)C(F)(F)F    96.7

Query CC(C)c1nc(CN(C)C(=O)N[C@H](C(=O)N[C@@H](Cc2ccccc2)C[C@H](O)[C@H](Cc2ccccc2)NC(=O)OCc2cncs2)C(C)C)cs1 yields cell viability of 77.9

Query CCOC(=O)[C@@H](N)Cc1ccc(-c2cc(O[C@H](c3ccc(Cl)cc3-n3ccc(C)n3)C(F)(F)F)nc(N)n2)cc1.O=C(O)CNC(=O)c1ccccc1 yields cell viability of 107

----------
Test system: NOMO1
assay_text: AUC of viability dose-response curve (% viability x log10 dose units); higher = less sensitive
run_parameters: HPLM + 10% dialyzed FBS; 48 h
result_type: AUC of viability dose-response curve
// return a plain number; no unit text

O=C(Nc1cc(Cl)cc2c1[nH]c1cnccc12)c1cccnc1    467

Query C[C@@H]1COCCN1c1cc(C2([S@+](C)(=N)[O-])CC2)nc(-c2ccnc3[nH]ccc23)n1 yields AUC of viability dose-response curve of 358

Query C=C1/C(=C\C=C2/CCC[C@]3(C)[C@@H]([C@H](C)CCCC(C)(C)O)CC[C@@H]23)C[C@@H](O)C[C@@H]1O yields AUC of viability dose-response curve of 440

Query CC1(C)O[C@@H]2C[C@H]3[C@@H]4C[C@H](F)C5=CC(=O)C=C[C@]5(C)[C@@]4(F)[C@@H](O)C[C@]3(C)[C@]2(C(=O)CO)O1 yields AUC of viability dose-response curve of 460

----------
Test system: P12-Ichikawa
assay_text: cell viability relative to DMSO control; higher = less cytotoxic
run_parameters: HPLM + 10% dialyzed FBS; 48 h; 0.00234 µM
// reported cell viability for each item listed
Supply the numeric figure in %, leaving out any unit text.

Query O=C(O)CCC1CCC(c2cc(F)ccc2F)([S+](=O)([O-])c2ccc(Cl)cc2)CC1 (stereo unspecified) yields cell viability of 114

Query FC1=CC=C(C=C1)N2/C=C\C=C(C(=O)NC3=CC=C(OC4=C5C=C[NH]C5=NC=C4)C(=C3)F)/C2=O yields cell viability of 111

Query Cn1cnc2c(F)c(Nc3ccc(Br)cc3F)c(C(=O)NOCCO)cc21 yields cell viability of 101

Query CNC(=O)c1ccc(N2C(=S)N(c3cnc(C#N)c(C(F)(F)F)c3)C(=O)C23CCC3)cc1F yields cell viability of 109

Query CN(C)[S+](=O)([O-])c1ccc2c(c1)C(=Cc1cc3c([nH]1)CCCC3)C(=O)N2 yields cell viability of 114

Query CC(C)OC(=O)C(C(=O)OC(C)C)=C1S\C=C/S1 yields cell viability of 124

----------
Tested on: P12-Ichikawa
assay_text: cell viability relative to DMSO control; higher = less cytotoxic
run_parameters: RPMI 5 mM glucose + 10% FBS; 48 h; 0.00234 µM
// reported cell viability for each item listed
Supply the numeric figure in %, leaving out any unit text.

Consider the reported cell viability for these molecules:
c1ccc(CCCN2CCN(CCOC(c3ccccc3)c3ccccc3)CC2)cc1    97.1
C[C@@H]1COCCN1c1cc(C2([S@+](C)(=N)[O-])CC2)nc(-c2ccnc3[nH]ccc23)n1    105
Cc1coc2c1C(=O)C(=O)c1c-2ccc2c(C)cccc12    123

Query COC(=O)C[C@](O)(CCCC(C)(C)O)C(=O)O[C@@H]1C(OC)=CC23CCCN2CCc2cc4c(cc2[C@H]13)OCO4 (stereo not given in full) yields cell viability of 101

Query ClC1=CC=C(C=C1)C(C#N)C2=C(Cl)C=C(C=C2Cl)N3\N=C/C(=O)NC3=O (stereo not given) yields cell viability of 94.7

----------
Test system: NOMO1
assay_text: cell viability relative to DMSO control; higher = less cytotoxic
run_parameters: HPLM + 10% dialyzed FBS; 48 h; 1.71 µM
// reported cell viability for each item listed
Supply the numeric figure in %, leaving out any unit text.

Consider the reported cell viability for these molecules:
Cc1c(C)n(Cc2ccc(-c3ccccc3C(=O)O)cc2)c2ccc(C(=O)N[C@@H](C)c3ccc([N+](=O)[O-])cc3)cc12    86.8
CCC[S+]([O-])c1ccc2[nH]c(NC(=O)OC)nc2c1 (stereo not drawn)    79.5

Let us move to another entry and its cell viability.
Query CNC(=O)c1ccc2cc(C3(O)CCn4cncc43)ccc2c1 (stereo not drawn) yields cell viability of 137

----------
// reported cell viability for each item listed
System: SEM cells
assay_text: cell viability relative to DMSO control; higher = less cytotoxic
run_parameters: RPMI 5 mM glucose + 10% dialyzed FBS; 48 h; 0.00702 µM
Supply the numeric figure in %, leaving out any unit text.

Summary: OC[C@@H](O)[C@@H](O)[C@H](O)[C@@H](O)CO , SEM cells, cell viability = 119

Summary: CC[C@H](NC1=C2N=C[NH]C2=NC=N1)C/3=N/C4=C(C(=CC=C4)F)C(=O)N3C5=CC=CC=C5 , SEM cells, cell viability = 132

Summary: COC\1=C(/OC)C(=O)\C(=C(C)/C1=O)CCCCCCCCCCO , SEM cells, cell viability = 123

Summary: N[S+]([O-])(=O)C1=CC=C(NC/2=C/C(=O)C3=CC=CC=C3C2=O)C=C1 , SEM cells, cell viability = 108

Summary: Cn1cnc2c(F)c(Nc3ccc(Br)cc3F)c(C(=O)NOCCO)cc21 , SEM cells, cell viability = 107

Summary: C[C@]12CCC(=O)C=C1CC[C@@H]1[C@@H]2[C@@H](O)C[C@@]2(C)[C@H]1CC[C@]2(O)C(=O)CO , SEM cells, cell viability = 114

Summary: C[C@]12COC(=O)C[C@@H]1CC[C@@H]1[C@@H]2CC[C@@]2(C)[C@H]1CC[C@]2(C)O , SEM cells, cell viability = 104

Summary: COc1cc(OC2CCN(C)CC2)ccc1Nc1ncc2c(n1)n(C1CCCC1)c(=O)n2C , SEM cells, cell viability = 71.9

Summary: COC(=O)Nc1cc(Nc2cc(NC3CC3)c3ncc(C#N)n3n2)c(Cl)c(N2CCN(C)CC2)c1 , SEM cells, cell viability = 110

----------
Tested on: SEM cells
assay_text: cell viability relative to DMSO control; higher = less cytotoxic
run_parameters: RPMI 5 mM glucose + 10% dialyzed FBS; 48 h; 0.569 µM
result_type: cell viability (%)
Supply the numeric figure in %, leaving out any unit text.

Consider the reported cell viability for these compounds:
CCc1ccc(CCOc2ccc(CC3SC(=O)NC3=O)cc2)nc1 (configuration not stated)    68.6
CC(C)c1nc(CN(C)C(=O)N[C@H](C(=O)N[C@@H](Cc2ccccc2)C[C@H](O)[C@H](Cc2ccccc2)NC(=O)OCc2cncs2)C(C)C)cs1    94.8
C[N]1C=C(C=N1)C2=C3\C=N/NC(=O)C4=C3C(=CC(=C4)NC(=O)[C@H](N)C5CCCCC5)[NH]2    59.3
CNc1nc(Nc2ccc(C(=O)N3CCOCC3)cc2OC)ncc1Cl    78.5
O=C(O)C1(Cc2cccc(Nc3nccs3)n2)CCC(Oc2cccc(Cl)c2F)CC1 (configuration not stated)    111
C[C@H](NC(=O)c1sccc1OCc1ccc(Cl)cc1)c1ccccc1    97.9
CC[S+](=O)([O-])c1cccc(-c2cc(C(=O)NC3CCN(C)CC3)c(C)c3[nH]c4ncc(C)cc4c23)c1    46
ClC1=CC=C(C=C1)C(C#N)C2=C(Cl)C=C(C=C2Cl)N3\N=C/C(=O)NC3=O (configuration not stated)    104
CC(C)N[C@@H]1CCn2c(=O)[nH]c3cccc(c32)[C@H]1O    107
NNCCc1ccccc1    115

Query N[S+]([O-])(=O)C1=CC=C(NC/2=C/C(=O)C3=CC=CC=C3C2=O)C=C1 yields cell viability of 103

Query CN1CCN(C2=Nc3cc(Cl)ccc3Nc3ccccc32)CC1 yields cell viability of 112

Query CC(C)c1ccc2c(c1)c(SC(C)(C)C)c(CC(C)(C)C(=O)[O-])n2Cc1ccc(Cl)cc1 yields cell viability of 91.6

Query C[C@@H]1COCCN1c1cc(C2([S@+](C)(=N)[O-])CC2)nc(-c2ccnc3[nH]ccc23)n1 yields cell viability of 66.3

Query c1ccc(CCCN2CCN(CCOC(c3ccccc3)c3ccccc3)CC2)cc1 yields cell viability of 73

Query Cn1cnc2c(F)c(Nc3ccc(Br)cc3F)c(C(=O)NOCCO)cc21 yields cell viability of 83.1

Query COC(c1ccccc1)(c1ccccc1)[C@H](Oc1nc(C)cc(C)n1)C(=O)O yields cell viability of 167

Query FC1=CC=C(C=C1)N2/C=C\C=C(C(=O)NC3=CC=C(OC4=C5C=C[NH]C5=NC=C4)C(=C3)F)/C2=O yields cell viability of 121

Query O=C(Nc1cc(Cl)cc2c1[nH]c1cnccc12)c1cccnc1 yields cell viability of 116

Query CN[C@@H]1[C@@H](O)[C@@H](O[C@@H]2[C@@H](O)[C@H](O[C@H]3O[C@H](CN)[C@@H](O)[C@H](O)[C@H]3O)[C@@H](N)C[C@H]2NC(=O)[C@@H](O)CN)OC[C@]1(C)O yields cell viability of 135

Query Cc1cnn(C)c1C(=O)Nc1cc(Nc2ccc3c(/C=C/c4ccccn4)n[nH]c3c2)ccc1F yields cell viability of 75.9

Query CC[C@H](/C=C/[C@@H](C)[C@H]1CC[C@H]2[C@@H]3CC=C4C[C@@H](O)CC[C@]4(C)[C@H]3CC[C@]12C)C(C)C yields cell viability of 93.5
